- target: MAP2K1 (human) (UniProt Q02750)
- Sequence (Q02750 whole entry, looked up): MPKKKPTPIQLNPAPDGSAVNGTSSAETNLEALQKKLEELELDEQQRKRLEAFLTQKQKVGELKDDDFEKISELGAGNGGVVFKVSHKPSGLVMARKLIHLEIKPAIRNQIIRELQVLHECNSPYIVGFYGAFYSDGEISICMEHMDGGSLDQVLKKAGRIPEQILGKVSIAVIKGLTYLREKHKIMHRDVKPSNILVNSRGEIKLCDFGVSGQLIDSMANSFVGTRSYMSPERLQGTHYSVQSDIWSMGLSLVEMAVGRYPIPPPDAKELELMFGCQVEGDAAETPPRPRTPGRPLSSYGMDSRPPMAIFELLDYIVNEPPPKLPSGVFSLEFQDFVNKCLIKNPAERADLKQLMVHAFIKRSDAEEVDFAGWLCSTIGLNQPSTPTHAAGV
- test-name: radiometric filter-binding kinase assay, Kinase HotSpot
- test-parameters: compound 0.5 µM; ATP 10 µM
metric-name: residual activity (%)
State just the number; it will be interpreted in %.

CCOc1cc2ncnc(Nc3cccc(Br)c3)c2cc1OCC : 96.1
COc1cc2c(Nc3ccc(Br)cc3F)ncnc2cc1OCC1CCN(C)CC1 : 105

For the compound `O=c1[nH]c2ccccc2n1C1CCN(Cc2ccc(-c3nc4cc5[nH]cnc5cc4nc3-c3ccccc3)cc2)CC1` , give its reported residual activity.
96.8

Complete the entry with residual activity for `N#Cc1c(NC(=O)c2cccc3ccccc23)sc2c1CCCC2`
98.4

// fetch residual activity given entry `c1ccc(-c2cnc(Nc3ccc(OCCN4CCCC4)cc3)s2)cc1`
96.9

Using the record for `Nc1ncnc2c1cnn2-c1ccccc1` , state its measured residual activity.
93.9

Provide only the value of recorded residual activity for `CCc1nc(-c2ccc(OC)cc2)[nH]c1-c1ccncc1`
97.8

// fetch residual activity given entry `O=c1c(-c2ccc(F)cc2)c(-c2ccncc2)[nH]n1-c1ccc(Cl)cc1`
70.1

Determine its reported residual activity: `N/C(=N\N=C/c1ccc(-c2cccc([N+](=O)[O-])c2)o1)N[N+](=O)[O-]`
105

Provide residual activity value for the following compound: `O=c1c2ccccc2[nH]c(=S)n1CCN1CCC(=C(c2ccc(F)cc2)c2ccc(F)cc2)CC1`
97.5

Complete the entry with residual activity for `O=C1NC(=O)c2c1c1c3ccccc3[nH]c1c1[nH]c3cc(Br)ccc3c21`
90.3

Find the measured residual activity of `O=S(=O)(NCCNC/C=C/c1ccc(Br)cc1)c1cccc2cnccc12` and report it.
90.5

Tell me measured residual activity for `COc1cc2c(cc1OC)-c1[nH]nc(Nc3cccc(F)c3)c1C2` please.
90.1

Specify residual activity for `Cn1cc(/C=C2\C(=O)Nc3ccc(S(N)(=O)=O)cc32)c2ccccc21` and stop.
63.6

Tell me residual activity reported for `CN[C@@H]1C[C@H]2O[C@@](C)([C@@H]1OC)n1c3ccccc3c3c4c(c5c6ccccc6n2c5c31)C(=O)NC4`
3.83

Entry `O=c1cc(N2CCOCC2)oc2c(-c3ccccc3)cccc12` needs its residual activity filled in; supply it.
88.8
